Molecular target: T1, full-length beta-Catenin (Uniprot ID P35222) (Homo sapiens (Human), UniProt P35222 2-781)
T1 construct: the AlphaScreen assay uses a Histidine (Nickel Chelate) detection kit, so a His tag is likely there; also called B-Catenin; bCat
T1 sequence: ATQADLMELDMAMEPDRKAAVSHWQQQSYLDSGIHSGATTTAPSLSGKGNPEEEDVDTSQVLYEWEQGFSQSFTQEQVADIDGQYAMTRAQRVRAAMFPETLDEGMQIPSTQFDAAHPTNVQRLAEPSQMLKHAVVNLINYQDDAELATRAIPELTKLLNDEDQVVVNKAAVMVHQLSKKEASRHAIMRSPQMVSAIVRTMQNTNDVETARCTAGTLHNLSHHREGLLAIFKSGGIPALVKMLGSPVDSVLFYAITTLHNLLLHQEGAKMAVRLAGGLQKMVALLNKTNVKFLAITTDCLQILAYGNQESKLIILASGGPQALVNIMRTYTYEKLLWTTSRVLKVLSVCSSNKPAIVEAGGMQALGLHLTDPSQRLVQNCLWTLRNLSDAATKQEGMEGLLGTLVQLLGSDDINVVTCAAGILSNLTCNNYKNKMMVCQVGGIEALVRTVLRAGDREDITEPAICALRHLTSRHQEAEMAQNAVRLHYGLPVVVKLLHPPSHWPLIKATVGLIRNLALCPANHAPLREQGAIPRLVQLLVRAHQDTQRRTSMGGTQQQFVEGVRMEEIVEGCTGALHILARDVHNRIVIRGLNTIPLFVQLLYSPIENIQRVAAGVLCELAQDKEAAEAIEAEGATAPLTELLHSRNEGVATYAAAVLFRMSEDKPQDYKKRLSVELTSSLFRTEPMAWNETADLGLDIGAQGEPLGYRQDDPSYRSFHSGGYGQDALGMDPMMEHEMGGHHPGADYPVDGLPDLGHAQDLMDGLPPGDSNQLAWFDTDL
Experiment: AlphaScreen competition; full-length beta-catenin with biotin-TCF4(10-53) probe as competitor
Starred links: 1 amine or outer side, 2 acyl side, 3 side chain; linkers in the order of their positions; H or OH if unused. Positions of bridges follow the written chain, without caps; N, C: chain ends. Non-standard residues stand in square brackets, D forms with d. Primed or numbered codes have the meaning given here. B5(16) = 2-amino-2-(pent-4-en-1-yl)hept-6-enoic acid = 2,2-bis(4-pentenyl)glycine (stitching residue), C=CCCCC(CCCC=C)(N[*:1])C(=O)[*:2]; B5(4) = 2,2-bis(4-pentenyl)glycine = 2-amino-2-(pent-4-en-1-yl)hept-6-enoic acid (stitching residue), C=CCCCC(CCCC=C)(N[*:1])C(=O)[*:2]; RdN = (R)-4-(((allyloxy)carbonyl)(methyl)amino)-2-amino-2-methylbutanoic acid, C=CCOC(=O)N(C)CC[C@@](C)(N[*:1])C(=O)[*:2]; B5(19) = 2-amino-2-(pent-4-en-1-yl)hept-6-enoic acid (bis(4-pentenyl)glycine), C=CCCCC(CCCC=C)(N[*:1])C(=O)[*:2]; 6F1NapA = 2-amino-3-(6-fluoronaphthalen-1-yl)propanoic acid, O=C([C@H](Cc1cccc2cc(F)ccc12)N[*:1])[*:2]; B5 = 2-amino-2-(pent-4-en-1-yl)hept-6-enoic acid, C=CCCCC(CCCC=C)(N[*:1])C(=O)[*:2]; Trp(5-CF3) = N[C@@H](Cc1c[nH]c2ccc(C(F)(F)F)cc12)C(=O)O; H2Trp = 2,3-dihydrotryptophan (indolin-3-yl alanine); Trp(5-OMe) = COc1ccc2[nH]cc(C[C@H](N)C(=O)O)c2c1; S7 = C[C@@](CCCCCC=[*:3])(N[*:1])C(=O)[*:2]; 2Nal = N[C@@H](Cc1ccc2ccccc2c1)C(=O)O; αAllylPro = C=CC[C@@]1(C(=O)O)CCCN1; S8 = C=CCCCCCC[C@](C)(N)C(=O)O
measured-parameter: pEC50
In textbook form, pEC50 equals minus log to base ten of the concentration in mol/L.

Sure, the documented pEC50 for Ac-[αAllylPro]DA[B5(19)]DEAAFV[S8]F[2Nal]Q-NH2 (staple 1-4, 4-11, stapled peptide composition) [I-140] is 6.03

Sure, the documented pEC50 for Ac-[αAllylPro]DA[B5(16)]DEAAFV[S8]F[H2Trp]Q-NH2 (staple 1-4, 4-11, stapled peptide) [I-168] is 5.25

Sure, the documented pEC50 for Ac-[αAllylPro]DA[B5]DEAAFV[S8]F[Trp(5-CF3)]Q-NH2 (staple 1-4, 4-11, stapled peptide composition) [I-169] is 5.04

Sure, the documented pEC50 for XDAXDEAAFVXFXQ (not fully specified; as printed: Ac-PL3-Asp-Ala-B5-Asp-Glu-Ala-Ala-Phe-Val-S8-Phe-aMeW-Gln-NH2; N-terminal acetyl, C-terminal amide; PL3(1), B5(4), S8(11), aMeW(13); staples PL3-B5 and B5-S8 by olefin metathesis, stapled peptide) [I-137] is 5.85

Sure, the documented pEC50 for Ac-[αAllylPro]DA[B5(4)]DEAAFV[S8]F[6F1NapA]Q-NH2 (staple 1-4, 4-11, stapled peptide composition) [I-142] is 5.13

More entries:
Sure, the documented pEC50 for XDAXDEAAFVXFXQ (not fully specified; as printed: Ac-PL3-Asp-Ala-B5-Asp-Glu-Ala-Ala-Phe-Val-S8-Phe-5CpW-Gln-NH2; N-terminal acetyl, C-terminal amide; PL3(1), B5(4), S8(11), 5CpW(13); staples PL3-B5 and B5-S8 by olefin metathesis, stapled peptide) [I-171] is 5.68

Sure, the documented pEC50 for Ac-[αAllylPro]DA[B5(4)]DEAAFV[S8]FWA-NH2 (staple 1-4, 4-11, stapled (stitched) peptide composition) [I-135] is 6.56

Sure, the documented pEC50 for DIXDDAAFQXFWH (not fully specified; as printed: Ac-Asp-Ile-RdN-Asp-Asp-Ala-Ala-Phe-Gln-S7-Phe-Trp-His-NH2; N-terminal acetyl, C-terminal amide; RdN(3), S7(10); staple RdN-S7 by olefin metathesis, stapled peptide) [I-149] is 5.75

Sure, the documented pEC50 for Ac-ADA[RdN]DEAAFQ[S7]FWH-NH2 (staple 4-11, stapled peptide composition) [I-156] is 5.38

Sure, the documented pEC50 for Ac-[αAllylPro]DA[B5(16)]DEAAFV[S8]F[Trp(5-OMe)]Q-NH2 (staple 1-4, 4-11, stapled peptide composition) [I-165] is 5.91

Reference source for all entries: patent US20240116985A1
